# TARGET_ENTITY: DPP1 (Homo sapiens (Human))
# Sequence (P53634 25-463): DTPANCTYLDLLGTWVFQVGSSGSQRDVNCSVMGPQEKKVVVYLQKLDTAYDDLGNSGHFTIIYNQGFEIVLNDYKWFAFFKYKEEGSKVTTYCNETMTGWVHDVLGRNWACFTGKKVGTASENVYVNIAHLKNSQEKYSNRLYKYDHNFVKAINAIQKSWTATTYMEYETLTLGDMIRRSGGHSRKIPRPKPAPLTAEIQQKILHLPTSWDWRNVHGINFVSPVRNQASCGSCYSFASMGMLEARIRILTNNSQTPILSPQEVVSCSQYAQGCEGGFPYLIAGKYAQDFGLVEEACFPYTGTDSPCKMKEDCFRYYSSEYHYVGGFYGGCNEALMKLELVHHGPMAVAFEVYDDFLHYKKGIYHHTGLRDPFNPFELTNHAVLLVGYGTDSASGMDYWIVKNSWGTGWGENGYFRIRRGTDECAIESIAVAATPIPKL
# PROTOCOL_DESCRIPTION: DPP1 activity inhibition test on U937 cells
# Format: cell-based
# RUN_CONDITIONS: U-937, 5 nM compound, substrate h-Gly-phe-AFC
Documented inhibition at 0.005 µM across a set of compounds

Some compounds with known inhibition at 0.005 µM results, for comparison:
COMPOUND: CN1CC(n2c(=O)oc3ccc(-c4ccc(C[C@@H](C#N)NC(=O)[C@@H]5CNCCCO5)cc4)cc32)C1
TARGET_ENTITY: DPP1 (Homo sapiens (Human))
DATA_VALUE: 30 to 75%
//
COMPOUND: N#C[C@H](Cc1ccc(-c2ccc3nnnn3c2)cc1)NC(=O)[C@@H]1CNCCCO1
TARGET_ENTITY: DPP1 (Homo sapiens (Human))
DATA_VALUE: < 30%
//
COMPOUND: N#C[C@H](Cc1ccc(-c2ccc3oc(=O)n(C4CC(=O)C4)c3c2)cc1F)NC(=O)[C@@H]1CNCCCO1
TARGET_ENTITY: DPP1 (Homo sapiens (Human))
DATA_VALUE: < 30%
//
COMPOUND: N#C[C@H](Cc1ccc(-c2ccc3c(c2)COC3=O)cc1)NC(=O)[C@@H]1CNCCCO1
TARGET_ENTITY: DPP1 (Homo sapiens (Human))
DATA_VALUE: 30 to 75%

API: the following record is the query input.
// inhibition at 0.005 µM value for CN1CCC2(C1)OC(=O)c1ccc(-c3ccc(C[C@@H](C#N)NC(=O)[C@@H]4CNCCCO4)c(F)c3)cc12 (some centres unmarked) : < 30%

* * *

# TARGET_ENTITY: DPP1 (Homo sapiens (Human))
# PROTOCOL_DESCRIPTION: DPP1 activity inhibition test on U937 cells
# Format: cell-based
# RUN_CONDITIONS: U-937, 5 nM compound, substrate h-Gly-phe-AFC
EXPERIMENTAL_READOUT: inhibition at 0.005 µM

COMPOUND: CN1Cc2cc(-c3ccc(C[C@@H](C#N)NC(=O)[C@@H]4CNCCCO4)cc3)sc2C1=O
inhibition at 0.005 µM: < 30%
--
COMPOUND: CN1CCC2(CC1)OCc1ccc(-c3ccc(C[C@@H](C#N)NC(=O)[C@@H]4CNCCCO4)cc3)cc12
inhibition at 0.005 µM: < 30%
--
COMPOUND: CN1Cc2sc(-c3ccc(C[C@@H](C#N)NC(=O)[C@@H]4CNCCCO4)cc3)cc2C1=O
inhibition at 0.005 µM: < 30%
--
COMPOUND: N#C[C@H](Cc1ccc(-c2ccc3c(c2)C2(CCN(C4COC4)C2)OC3=O)cc1F)NC(=O)[C@@H]1CNCCCO1 (stereo partly drawn)
inhibition at 0.005 µM: < 30%
--
COMPOUND: CN1CC2(C1)OCc1ccc(-c3ccc(C[C@@H](C#N)NC(=O)[C@@H]4CNCCCO4)cc3)cc12
inhibition at 0.005 µM: 30 to 75%
--
COMPOUND: N#C[C@H](Cc1ccc(-c2ccc3oc(=O)n(C(F)F)c3c2)cc1)NC(=O)[C@@H]1CNCCCO1
inhibition at 0.005 µM: 30 to 75%
--
COMPOUND: CN1CC2(C1)OC(=O)c1ccc(-c3ccc(C[C@@H](C#N)NC(=O)[C@@H]4CNCCCO4)c(F)c3)cc12
inhibition at 0.005 µM: < 30%
--
COMPOUND: N#C[C@H](Cc1ccc(-c2ccc3oc(=O)n(CC4COC4)c3c2)cc1F)NC(=O)[C@@H]1CNCCCO1
inhibition at 0.005 µM: < 30%

API: the following record is the query input.
// inhibition at 0.005 µM value for N#C[C@H](Cc1ccc(-c2ccc3oc(=O)n(C4CS(=O)(=O)C4)c3c2)cc1F)NC(=O)[C@@H]1CNCCCO1 : < 30%
